System: MINK;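 note: KINOMEscan kinase panel screen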
Construct: gene MINK1
Conditions: concentration: 1 μM, replicates: in singlicate; n = 1
outcome.measure: %Inh (%)
API: value field is a number in %; no unit string.

Query block: Please give the measured %Inh for this compound: COc1ccc(CNC(=O)NC2CCN(c3ccnc(Nc4ccc(OC)cc4)n3)C2)cc1 (stereo not drawn)
Result block: 4

Query block: Please give the measured %Inh for this compound: `CCCCCc1nc2c(N)ncnc2n1CCCCC`
Result block: 0

Query block: Please give the measured %Inh for this compound: `Cc1nnc(-c2ccc(C)c(-c3ccc(C(=O)Nc4ccc(NS(C)(=O)=O)cc4)cc3)c2)o1`
Result block: 19

Query block: Please give the measured %Inh for this compound: `CCc1nc(-c2cccc(C)c2)c(-c2ccnc(NCc3ccccc3)c2)s1`
Result block: 2

Query block: Please give the measured %Inh for this compound: `Cc1cccc(Cn2ccn3c(=O)cc(N4CCOCC4)nc23)c1`
Result block: 7

Query block: Please give the measured %Inh for this compound: `COc1ccc(COc2cc(-n3cnc4ccccc43)sc2C(N)=O)cc1`
Result block: 24

Query block: Please give the measured %Inh for this compound: COc1ccc(Nc2nccc(N3CCC(NC(=O)Nc4cccc(C(C)=O)c4)C3)n2)cc1 (stereo not drawn)
Result block: 0

Query block: Please give the measured %Inh for this compound: `N#Cc1ccc(-c2cc(-c3c[nH]nc3-c3ccccn3)ccn2)cc1`
Result block: 76

Query block: Please give the measured %Inh for this compound: Cc1nnc(-c2ccc3ncc(-c4ccc(S(C)=O)cc4)n3c2)o1 (stereo not drawn)
Result block: 0
